test system: SNB-19 CNS; test: NCI tumour cell line growth inhibition, 48 h
Known TGI of a selection of compounds

The recorded TGI for Cc1[nH]c2ccccc2c1C1Cc2ccccc2N1C(=O)/C(Cl)=C/c1ccccc1 (configuration not stated) is > 100 µM

The recorded TGI for `COC(=O)C(=Cc1cc(OC)c(OC)c(OC)c1-c1cc2c(cc1C(C)=O)OCO2)C(=O)OC` is 69.6 µM

The recorded TGI for CCN(CC)CCCC(C)Nc1cnc(C(=O)Nc2cccc3ccc(OC)nc23)cn1 (configuration not stated) is 10.9 µM

The recorded TGI for C/C=C1/C(=C/c2[nH]c(/C=c3\[nH]/c(=C/C4=NC(=O)C(CC)=C4C)c(C)c3CCC(=O)O)c(CCC(=O)O)c2C)NC(=O)C1C (configuration not stated) is > 150 µg/mL

The recorded TGI for `COc1ccc(-c2nnc(COc3ccc(NC(=O)Nc4ccc(Cl)c(C(F)(F)F)c4)cc3F)o2)cc1` is 24.2 µM

The recorded TGI for `COc1ccc(N2C(=O)c3cc(C)cnc3S2(=O)=O)cc1` is > 100 µM

The recorded TGI for `CO[C@H]1C=C[C@@]23c4cc5c(cc4CO[C@]2(O)CN(C)[C@H]3C1)OCO5` is > 100 µM

The recorded TGI for C=C1CC[C@@H]2[C@](C)(COC(C)=O)[C@H](OC(C)=O)CC[C@@]2(C)[C@@H]1CC(Nc1ccc(S(=O)(=O)Nc2ncccn2)cc1)C1=CCOC1=O (some centres not stated) is 3.76 µM

The recorded TGI for `FC(F)(F)c1nc(-c2ccccc2)oc1Sc1nnc(Sc2oc(-c3ccccc3)nc2C(F)(F)F)s1` is > 100 µM

====

system: UACC-62 melanoma; assay: NCI tumour cell line growth inhibition, 48 h
OUTCOME_MEASURE: TGI

Some compounds with known TGI results, for comparison:
O=c1[nH]c(=O)n(C2OC(CO)C(O)C(O)C2O)cc1F (stereo unspecified)	> 100 µM
COc1ccc(OC)c(C(=O)c2oc3ccc(Br)cc3c2N)c1	14.3 µM
COc1ccc(-c2cc(=O)c3ccccc3[nH]2)c(OC)c1	> 100 µM
O=C(Nc1ccc(Cl)cc1Cl)C(=O)C(C(=O)c1ccncc1)C1OC(=O)c2ccccc21 (stereo unspecified)	> 100 µM
COc1ccc(N2C(=O)c3cc(C)cnc3S2(=O)=O)cc1	> 100 µM

Shift focus to the following entry.
The recorded TGI for `Cc1ccc(-c2cc(=O)c3cc(C)c(C)c(C(=O)O)c3o2)cc1C` is > 100 µM

====

Known TGI of a selection of molecules
tested on: ACHN renal; assay: NCI tumour cell line growth inhibition, 48 h
Report only the number, with the unit µM understood.

Some molecules with known TGI results, for comparison:
O=C1C(Cl)C(c2cccc(Cl)c2)N1c1ccc(-n2c(=S)[nH]c3ccccc3c2=O)cc1 (stereo not given)	48.8
O=C(Cc1ccccc1)N/N=C/c1ccccc1O	61
CC(=O)O.[Au].c1ccc([PH+](c2ccccc2)c2ccccc2)cc1	8.53
C=C1CC[C@@H]2[C@](C)(COC(C)=O)[C@H](OC(C)=O)CC[C@@]2(C)[C@@H]1CC(Nc1ccc(S(=O)(=O)Nc2ncccn2)cc1)C1=CCOC1=O (stereo not given in full)	3.27

The recorded TGI for `O=C(/C(=C/c1cccc([N+](=O)[O-])c1)c1ccccc1)c1ccccc1` is 5.41

The recorded TGI for Cc1ccc(NC(=O)c2sc3nc(C)c(C(O)c4ccccc4)cc3c2N)cc1 (stereo not given) is 20.2

The recorded TGI for `Cc1nc2ccccc2n1C(=O)c1c(F)c(F)c(F)c(F)c1F` is 60.7
